- measured on: FXa (Homo sapiens, UniProt P00742)
- Sequence (P00742 235-488 limits assumed): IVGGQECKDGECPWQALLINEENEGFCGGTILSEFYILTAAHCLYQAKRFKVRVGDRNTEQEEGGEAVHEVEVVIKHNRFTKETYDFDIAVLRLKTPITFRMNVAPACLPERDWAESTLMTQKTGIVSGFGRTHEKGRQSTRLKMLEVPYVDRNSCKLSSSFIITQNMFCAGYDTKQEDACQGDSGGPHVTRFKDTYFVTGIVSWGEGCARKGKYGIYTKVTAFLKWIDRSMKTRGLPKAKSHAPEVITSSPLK
- Sequence (P00742 41-179 partner limits assumed): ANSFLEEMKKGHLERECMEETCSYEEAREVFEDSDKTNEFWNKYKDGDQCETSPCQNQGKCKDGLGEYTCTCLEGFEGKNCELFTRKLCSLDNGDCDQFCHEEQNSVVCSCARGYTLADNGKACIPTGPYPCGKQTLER
- assay text: Selectivity: FXa inhibition, substrate Biophen CS-11(32)
- Assay type: biochemical
- experimental conditions: at 250 (μM)
Rule: FXa % (I) @ 250 of 60 % @ 250 or more gives yes; anything lower gives no.

Identify whether the reported FXa % (I) @ 250 of the following molecule is 60 % @ 250 or greater: C#CCOCCOCCOC(=O)NC(Cc1ccc(NC(=N)N)cc1)P(=O)(Oc1ccccc1)Oc1ccccc1.O=C(O)C(F)(F)F (stereo not drawn) [Intermediate 56]
no

Identify whether the reported FXa % (I) @ 250 of the following molecule is 60 % @ 250 or greater: O=C(O)C(F)(F)F.[N-]=[N+]=NCCOCCOCCOC(=O)NC(Cc1ccc(NC(=N)N)cc1)P(=O)(Oc1ccccc1)Oc1ccccc1 (stereo not drawn) [Intermediate 61]
no

Identify whether the reported FXa % (I) @ 250 of the following molecule is 60 % @ 250 or greater: C#CCCCOC(=O)NC(Cc1ccc(NC(=N)N)cc1)P(=O)(Oc1ccccc1)Oc1ccccc1.O=C(O)C(F)(F)F (stereo not drawn) [Intermediate 58]
no

Identify whether the reported FXa % (I) @ 250 of the following molecule is 60 % @ 250 or greater: C#CCCCOC(=O)NC(Cc1ccc(NC(=N)N)cc1)P(=O)(Oc1ccc(NC(C)=O)cc1)Oc1ccc(NC(C)=O)cc1 (stereo not drawn) [Intermediate 63]
yes

Identify whether the reported FXa % (I) @ 250 of the following molecule is 60 % @ 250 or greater: CCN(CC)c1ccc2c(-c3ccccc3C(=O)N3CCN(C(=O)CCCCCCCn4cc(CCCOC(=O)NC(Cc5ccc(NC(=N)N)cc5)P(=O)(Oc5ccc(NC(C)=O)cc5)Oc5ccc(NC(C)=O)cc5)nn4)CC3)c3ccc(=[N+](CC)CC)cc-3oc2c1.O=C(O)C(F)(F)F.[Cl-] (stereo not drawn)
yes

Identify whether the reported FXa % (I) @ 250 of the following molecule is 60 % @ 250 or greater: C#CCOCCOCCOCCOC(=O)NC(Cc1ccc(NC(=N)N)cc1)P(=O)(Oc1ccccc1)Oc1ccccc1.O=C(O)C(F)(F)F (stereo not drawn) [Intermediate 57]
no

Identify whether the reported FXa % (I) @ 250 of the following molecule is 60 % @ 250 or greater: O=C(O)C(F)(F)F.[N-]=[N+]=NCCOCCOC(=O)NC(Cc1ccc(NC(=N)N)cc1)P(=O)(Oc1ccccc1)Oc1ccccc1 (stereo not drawn) [Intermediate 60]
no

Identify whether the reported FXa % (I) @ 250 of the following molecule is 60 % @ 250 or greater: C#CCOCCOC(=O)NC(Cc1ccc(NC(=N)N)cc1)P(=O)(Oc1ccccc1)Oc1ccccc1.O=C(O)C(F)(F)F (stereo not drawn) [Intermediate 55]
no

Identify whether the reported FXa % (I) @ 250 of the following molecule is 60 % @ 250 or greater: O=C(O)C(F)(F)F.[N-]=[N+]=NCCOCCOCCOCCOC(=O)NC(Cc1ccc(NC(=N)N)cc1)P(=O)(Oc1ccccc1)Oc1ccccc1 (stereo not drawn) [Intermediate 62]
no

====

- measured on: plasmin (from human plasma) (Homo sapiens, UniProt P00747)
- Sequence (P00747 581-810 limits assumed): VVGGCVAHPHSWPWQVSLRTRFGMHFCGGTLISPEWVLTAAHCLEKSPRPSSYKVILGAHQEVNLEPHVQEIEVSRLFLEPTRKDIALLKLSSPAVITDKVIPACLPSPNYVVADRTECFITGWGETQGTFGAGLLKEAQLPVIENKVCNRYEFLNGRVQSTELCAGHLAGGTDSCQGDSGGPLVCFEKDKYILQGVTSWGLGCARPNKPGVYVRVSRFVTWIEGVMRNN
- Sequence (P00747 97-580 partner limits assumed): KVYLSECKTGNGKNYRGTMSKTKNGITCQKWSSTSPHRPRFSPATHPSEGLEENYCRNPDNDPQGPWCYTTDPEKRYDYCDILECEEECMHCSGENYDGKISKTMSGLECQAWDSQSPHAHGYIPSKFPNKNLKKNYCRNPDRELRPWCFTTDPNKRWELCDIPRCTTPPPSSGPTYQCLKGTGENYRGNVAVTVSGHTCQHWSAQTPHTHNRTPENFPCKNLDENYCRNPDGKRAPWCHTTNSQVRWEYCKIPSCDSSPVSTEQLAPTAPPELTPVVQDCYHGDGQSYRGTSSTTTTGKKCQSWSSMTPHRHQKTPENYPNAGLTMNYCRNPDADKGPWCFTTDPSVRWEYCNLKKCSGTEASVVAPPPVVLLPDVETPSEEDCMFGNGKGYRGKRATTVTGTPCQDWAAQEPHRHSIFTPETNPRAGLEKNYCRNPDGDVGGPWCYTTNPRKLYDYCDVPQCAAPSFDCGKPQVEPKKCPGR
- assay text: Selectivity: plasmin inhibition, substrate Biophen CS-21(66)
- experimental conditions: 15 min preincubation; Tris buffer pH 7.4; 580 μM substrate
experimental readout: IC50 (µM)
Response body: numeric value in µM, unit text excluded.

// IC50 lookup, key: CCN(CC)c1ccc2c(-c3ccccc3C(=O)N3CCN(C(=O)CCCCCCCn4cc(CCCOC(=O)NC(Cc5ccc(NC(=N)N)cc5)P(=O)(Oc5ccccc5)Oc5ccccc5)nn4)CC3)c3ccc(=[N+](CC)CC)cc-3oc2c1.O=C(O)C(F)(F)F.[Cl-] (centres unmarked)
4.6

// IC50 lookup, key: C#CCCCOC(=O)NC(Cc1ccc(NC(=N)N)cc1)P(=O)(Oc1ccc(NC(C)=O)cc1)Oc1ccc(NC(C)=O)cc1 (centres unmarked) [Intermediate 63]
1.4

// IC50 lookup, key: O=C(O)C(F)(F)F.[N-]=[N+]=NCCOCCOC(=O)NC(Cc1ccc(NC(=N)N)cc1)P(=O)(Oc1ccccc1)Oc1ccccc1 (centres unmarked) [Intermediate 60]
7.9

// IC50 lookup, key: O=C(O)C(F)(F)F.[N-]=[N+]=NCCOCCOCCOC(=O)NC(Cc1ccc(NC(=N)N)cc1)P(=O)(Oc1ccccc1)Oc1ccccc1 (centres unmarked) [Intermediate 61, 2,2,2-trifluoroacetate]
5.7

// IC50 lookup, key: C#CCOCCOCCOC(=O)NC(Cc1ccc(NC(=N)N)cc1)P(=O)(Oc1ccccc1)Oc1ccccc1.O=C(O)C(F)(F)F (centres unmarked) [Intermediate 56, 2,2,2-trifluoroacetate]
7.8
